conditions: 25 °C
Measured log10(solubility) by item
PROPERTY_NAME: log10(solubility) (log10 of the value in µM)

COMPOUND	NUMBER
CCCCCCCCC(=O)OC	2.12
CC(=O)OCCBr	5.33
Fc1ccc(CCl)cc1	3.46
CCCCCCCC(C)=O	3.42
CC(Br)CCl (configuration not stated)	4.15
Cc1c(C)c(C)c(C)c(C)c1C	0.16
CCCCCCCc1ccccc1	0.40
Clc1cccc2ccccc12	2.03
CCCCCCCCc1ccccc1	-0.46
Fc1cccc2ccccc12	2.55
CCCCCCCCC(C)=O	2.69
Cc1ccc(C)c(O)c1C	4.06
